- Test system: UACC-62 (Melanoma)

- Compound: "CC1(C)CC[C@]2(CO)CC[C@]3(C)C(=CC[C@@H]4[C@@]5(C)CCCNC(C)(C)[C@@H]5CC[C@]43C)[C@@H]2C1 [Compound 3, azepanoerythrodiol]"
  GI50 [nM]: 1920
- Compound: "CC(C)=C1CCC=C2CC[C@]3(C)[C@H](CC[C@@H]4[C@@]5(C)CCCNC(C)(C)[C@@H]5CC[C@]43C)[C@H]21 [Compound 9]"
  GI50 [nM]: 1770
- Compound: "C=C(C)[C@@H]1CC[C@]2(C)[C@H](CC=C3[C@@H]4[C@@H](C)[C@H](C)CC[C@]4(CO)CC[C@]32C)[C@@]1(C)CCCN [Compound 19]"
  GI50 [nM]: 5820

###

- Tested on: SF-539 (CNS cancer)
- Assay procedure: NCI-60 screen (SRB, 48 h)
- Conditions used: Homo sapiens, SF-539, 48 h, read-out: TGI
IC (TGI) values, listed per item
Measured metric: IC (TGI)

- Smiles data: "C=C(C)[C@@H]1CCC=C2CC[C@]3(C)[C@H](CC[C@@H]4[C@@]5(C)CCCNC(C)(C)[C@@H]5CC[C@]43C)[C@H]21"
  Reported value: "2.99 µM"
- Smiles data: "CC1(C)CC[C@]2(CO)CC[C@]3(C)C(=CC[C@@H]4[C@@]5(C)CCCNC(C)(C)[C@@H]5CC[C@]43C)[C@@H]2C1"
  Reported value: "2.41 µM"
- Smiles data: "CC1(C)CC[C@]23CC[C@]4(C)[C@H](CC[C@@H]5[C@@]6(C)CCCNC(C)(C)[C@@H]6CC[C@]54C)[C@H]2[C@H]1OC3"
  Reported value: "3.07 µM"
- Smiles data: "Cc1ccc(S(=O)(=O)OC[C@@]2(C)CC[C@]3(C)CC[C@]4(C)C(=C3C2)C=C[C@@H]2[C@@]3(C)CCCNC(C)(C)[C@@H]3CC[C@]24C)cc1"
  Reported value: "3.11 µM"
- Smiles data: "C[C@H]1[C@H](C)CC[C@]2(C(=O)Nc3ccc4ncccc4c3)CC[C@]3(C)C(=CC[C@@H]4[C@@]5(C)CCCNC(C)(C)[C@@H]5CC[C@]43C)[C@H]12"
  Reported value: "3.01 µM"
- Smiles data: "C=C(C)[C@@H]1CC[C@]2(C)[C@H](C=CC3=C4C[C@@](C)(CO)CC[C@]4(C)CC[C@]32C)[C@@]1(C)CCCN"
  Reported value: "3.13 µM"
- Smiles data: "CC(C)=C1CCC=C2CC[C@]3(C)[C@H](CC[C@@H]4[C@@]5(C)CCCNC(C)(C)[C@@H]5CC[C@]43C)[C@H]21"
  Reported value: "3.13 µM"
- Smiles data: "C=C(C)[C@@H]1CC[C@]2(C(=O)N[C@H](CO)Cc3ccccc3)CC[C@]3(C)[C@H](CC[C@@H]4[C@@]5(C)CCCNC(C)(C)[C@@H]5CC[C@]43C)[C@@H]12"
  Reported value: "3.19 µM"
- Smiles data: "CC1(C)NCCC[C@]2(C)[C@H]3C=CC4=C5C[C@@](C)(CO)CC[C@]5(C)CC[C@@]4(C)[C@]3(C)CC[C@@H]12"
  Reported value: "9.26 µM"
- Smiles data: "C[C@H]1[C@H](C)CC[C@]2(CO)CC[C@]3(C)C(=CC[C@@H]4[C@@]5(C)CCCNC(C)(C)[C@@H]5CC[C@]43C)[C@H]12"
  Reported value: "3.16 µM"
